system: Caco-2 monolayer; experiment: Caco-2 monolayer transmembrane transport, apical to basolateral; assay type: in vitro ADME, human; details: comparison among the dietary flavonoids, Table 2
quantityKind: apparent permeability coefficient (in words)

INSERT INTO results (molecule, experimentalvalue) VALUES
  ('O=c1c(O)c(-c2ccc(O)cc2)oc2cc(O[C@@H]3O[C@H](CO)[C@@H](O)[C@H](O)[C@H]3O)cc(O)c12 [Kaempferol-7-O-β-glucoside]', 'comparatively poor'),
  ('O=c1cc(-c2ccccc2)oc2cc(O)c(O)c(O)c12 [Baicalein]', 'comparatively poor'),
  ('O=c1cc(-c2ccc(O)cc2)oc2cc(O)cc(O)c12 [Apigenin]', 'comparatively poor');
